# targetDesc: 5-hydroxytryptamine receptor 1A (Rattus norvegicus)
# Sequence (P19327 whole entry): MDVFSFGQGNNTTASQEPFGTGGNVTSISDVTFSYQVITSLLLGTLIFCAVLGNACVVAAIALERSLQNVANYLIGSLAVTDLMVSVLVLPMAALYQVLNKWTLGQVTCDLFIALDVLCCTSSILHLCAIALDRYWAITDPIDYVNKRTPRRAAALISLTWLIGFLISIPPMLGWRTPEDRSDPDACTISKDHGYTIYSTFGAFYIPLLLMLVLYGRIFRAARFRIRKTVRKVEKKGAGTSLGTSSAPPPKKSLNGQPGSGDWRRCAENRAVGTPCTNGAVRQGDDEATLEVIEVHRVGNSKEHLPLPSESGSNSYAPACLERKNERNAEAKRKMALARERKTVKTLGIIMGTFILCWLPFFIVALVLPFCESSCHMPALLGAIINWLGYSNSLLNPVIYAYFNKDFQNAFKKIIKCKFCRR
pIC50: −log10 of the molar value.
Threshold rule: pIC50 greater than or equal to 9 is true (1); below that, false (0).

Task: Hello, I need to know if COc1ccc(N2CCN(CCCCc3c[nH]c4ccc(C(N)=O)cc34)CC2)c(OC)c1 has measured pIC50 not below 9. Thanks!
Result: true (1)

Task: Hello, I need to know if O=C1c2ccccc2S(=O)(=O)N1CCCCN1CCN(c2ncccn2)CC1 has measured pIC50 not below 9. Thanks!
Result: false (0)

Task: Hello, I need to know if COc1ccc2[nH]cc(CCCCN3CC=C(c4ccc(O)cc4)CC3)c2c1 has measured pIC50 not below 9. Thanks!
Result: true (1)

Task: Hello, I need to know if COc1ccc2[nH]cc(CCCCN3CC=C(c4ccc5c(c4)OCO5)CC3)c2c1 has measured pIC50 not below 9. Thanks!
Result: true (1)

Task: Hello, I need to know if COC(=O)c1ccc2[nH]cc(CCCCN3CCN(c4ccc(OC)cc4)CC3)c2c1 has measured pIC50 not below 9. Thanks!
Result: false (0)

Task: Hello, I need to know if NC(=O)c1ccc2[nH]cc(CCCCN3CCN(c4ccc(O)cc4)CC3)c2c1 has measured pIC50 not below 9. Thanks!
Result: true (1)

Task: Hello, I need to know if CC(=O)Nc1ccc(N2CCN(CCCCc3c[nH]c4ccc(C(N)=O)cc34)CC2)cc1 has measured pIC50 not below 9. Thanks!
Result: true (1)

Task: Hello, I need to know if COc1ccc2[nH]cc(CCCCN3CCN(c4ccc(OCc5ccccc5)cc4)CC3)c2c1 has measured pIC50 not below 9. Thanks!
Result: false (0)

Task: Hello, I need to know if COc1ccc2[nH]cc(CCCCN3CCN(c4ccc5c(c4)OCCO5)CC3)c2c1 has measured pIC50 not below 9. Thanks!
Result: true (1)
